All values here come from paper PMC11382098.

# System: Hs68 (human foreskin fibroblast) cells
# EXPERIMENT SUMMARY: In vitro cytotoxicity
# Assay type: cell-based
# CONDITION SET: Hs68, read-out: IC50 (concentration necessary for 50% inhibition), Hs68 cells
EXPERIMENTAL READOUT: IC50 (µM)

* O=c1[nH]cc(F)c(=O)[nH]1 | 3.08

---

# EXPERIMENT SUMMARY: Solubility observation
# Format: physicochemical
# CONDITION SET: compounds with two nitro groups
EXPERIMENTAL READOUT: Solubility (in words)

- O=[N+]([O-])c1cccc(/C=C/c2nc3ccc([N+](=O)[O-])cc3nc2/C=C/c2cccc([N+](=O)[O-])c2)c1 [Compound 5f]: reduced the solubility
- O=[N+]([O-])c1ccc(/C=C/c2nc3ccc(Br)cc3nc2/C=C/c2ccc([N+](=O)[O-])cc2)cc1 [Compound 4k]: reduced the solubility
- O=[N+]([O-])c1ccc(/C=C/c2nc3ccc([N+](=O)[O-])cc3nc2/C=C/c2ccc([N+](=O)[O-])cc2)cc1 [Compound 5k]: reduced the solubility
- O=[N+]([O-])c1cccc(/C=C/c2nc3ccc(Br)cc3nc2/C=C/c2cccc([N+](=O)[O-])c2)c1 [Compound 4f]: reduced the solubility
